B1: Osa-1-4 twister ribozyme (parent)
chain: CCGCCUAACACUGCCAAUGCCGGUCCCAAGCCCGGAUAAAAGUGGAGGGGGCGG

Variants of: B1
assay-explanation: self-cleavage, relative activity (ratio to wild type); higher = more cleavage; co-transcriptional
result-type: self-cleavage
// no unit string in output, number only

Data request: Param item = A40G U12G ; retrieve measured self-cleavage.
Data returned: 0.28

Data request: Repeat with G48A U43A
Data returned: 0.06

Data request: Repeat with A41U U24A
Data returned: 0.22

Data request: Repeat with A40C U18C
Data returned: 0.08

Data request: Repeat with G42C G50A
Data returned: 0.14

Data request: Repeat with G47A U18A
Data returned: 0.33

Data request: Repeat with G48U G50A
Data returned: 0.21

Data request: Repeat with A16C G49C
Data returned: 0.05

Data request: Repeat with C25U G51C
Data returned: 0.06

Data request: Repeat with G22A G34U
Data returned: 0.21

Data request: Repeat with C9U G13C
Data returned: 0.01

Data request: Repeat with C11G G42A
Data returned: 0.75

Data request: Repeat with G13C G53A
Data returned: 0.02

Data request: Repeat with A10C G44C
Data returned: 0.16

Data request: Repeat with G19U G34C
Data returned: 0.2

Data request: Repeat with A10U A16U
Data returned: 0.06

Data request: Repeat with A17C G49C
Data returned: 0.04

Data request: Repeat with A7G G45U
Data returned: 0.05

Data request: Repeat with A28G G45A
Data returned: 0.05

Data request: Repeat with C20U C21U
Data returned: 1.05

Data request: Repeat with A7C C52G
Data returned: 0.07

Data request: Repeat with A41G G45A
Data returned: 0.09

Data request: Repeat with C33A G45U
Data returned: 0.04

Data request: Repeat with G19C G48U
Data returned: 0.03

Data request: Repeat with G30U G34A
Data returned: 0.04

Data request: Repeat with G42C G44U
Data returned: 0.11

Data request: Repeat with G23C G50U
Data returned: 0.05

Data request: Repeat with C15A C26A
Data returned: 0.05

Data request: Repeat with A36G C9G
Data returned: 0.89

Data request: Repeat with G19U G44U
Data returned: 0.19

Data request: Repeat with C32A G30C
Data returned: 0.03

Data request: Repeat with A40G U43A
Data returned: 0.21

Data request: Repeat with G19A U12C
Data returned: 0.09

Data request: Repeat with A39C G13C
Data returned: 0.02

Data request: Repeat with G30U G35C
Data returned: 0.03

Data request: Repeat with C15G C33G
Data returned: 0.06

Data request: Repeat with G22A U18C
Data returned: 0.98

Data request: Repeat with G13C U24A
Data returned: 0.02

Data request: Repeat with A16G C33G
Data returned: 0.08

Data request: Repeat with C15G G30U
Data returned: 0.06

Data request: Repeat with G47A U43G
Data returned: 0.1

Data request: Repeat with C32A G48C
Data returned: 0.04

Data request: Repeat with C26A G19C
Data returned: 0.02

Data request: Repeat with A46C C11U
Data returned: 0.05

Data request: Repeat with G34C G53U
Data returned: 0.07

Data request: Repeat with A7U G42U
Data returned: 0.03

Data request: Repeat with C32U G42C
Data returned: 0.07

Data request: Repeat with C21U C32G
Data returned: 0.11

Data request: Repeat with A8G G30U
Data returned: 0.04

Data request: Repeat with C27G G45A
Data returned: 0.02

Data request: Repeat with G50U G54A
Data returned: 0.79

Data request: Repeat with C14G U37A
Data returned: 0.27

Data request: Repeat with A10C G23A
Data returned: 0.03

Data request: Repeat with A8G G47U
Data returned: 0.1

Data request: Repeat with C52G G30C
Data returned: 0.07

Data request: Repeat with C52G G34U
Data returned: 0.42

Data request: Repeat with C15G G50A
Data returned: 0.3

Data request: Repeat with G30C G54C
Data returned: 0.04

Data request: Repeat with A7U C9A
Data returned: 0.05

Data request: Repeat with A29G G23C
Data returned: 0.04

Data request: Repeat with A40C G35U
Data returned: 0.08

Data request: Repeat with C33U G54U
Data returned: 0.68

Data request: Repeat with A38G U43C
Data returned: 0.35

Data request: Repeat with A28C U12A
Data returned: 0.89

Data request: Repeat with A39C C25A
Data returned: 0.06

Data request: Repeat with C21G G22U
Data returned: 0.5

Data request: Repeat with C21A C52A
Data returned: 0.31

Data request: Repeat with C25G G53U
Data returned: 0.06

Data request: Repeat with A36U C15G
Data returned: 0.4

Data request: Repeat with C15G G34U
Data returned: 0.13

Data request: Repeat with C11G U43C
Data returned: 0.08

Data request: Repeat with A10U A28G
Data returned: 0.04

Data request: Repeat with A8G G50U
Data returned: 0.43

Data request: Repeat with A41U C11U
Data returned: 0.9

Data request: Repeat with A46G C26U
Data returned: 0.04

Data request: Repeat with C20G U43C
Data returned: 0.07

Data request: Repeat with A7U U24G
Data returned: 0.02

Data request: Repeat with A40U C14G
Data returned: 0.13

Data request: Repeat with C33U U24G
Data returned: 0.03

Data request: Repeat with C52A G34U
Data returned: 0.39

Data request: Repeat with C21U G47A
Data returned: 0.19

Data request: Repeat with A28G A36G
Data returned: 0.45

Data request: Repeat with A28C G47C
Data returned: 0.08

Data request: Repeat with A28C A29C
Data returned: 0.05

Data request: Repeat with A8G C9U
Data returned: 0.1

Data request: Repeat with C21U C52U
Data returned: 1.02

Data request: Repeat with A8C G19U
Data returned: 0.06

Data request: Repeat with A10U C11G
Data returned: 0.03

Data request: Repeat with G42U G53C
Data returned: 0.05

Data request: Repeat with G54A U12C
Data returned: 0.56

Data request: Repeat with G54A U12G
Data returned: 0.28
